Tested on: biotinyl-Ile-oxazolone
protocol description: self-aminoacylation, catalytic enhancement (BIO) (fold over background); higher = more active; k-Seq, kA / k0A0; sequences stand for … in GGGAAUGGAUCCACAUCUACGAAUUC…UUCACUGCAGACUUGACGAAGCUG
This sample holds only a part of the variants without activity.
self-aminoacylation listing for selected sequences.

biopolymer sequence | self-aminoacylation
CCCCACUUCAAGCAAUCGGCC [Fam1B.1 aminoacylation ribozyme variant] | 2.74
AAGUUUGCUAAUAGUCGUAAC [Fam3.1 aminoacylation ribozyme variant] | 0.726
AUUCAACUAGGUCAUCGGGUC [Fam2.2 aminoacylation ribozyme variant] | 1.02
